All figures here come from paper PMC9416004.

experimentNotes: in vitro
settings: human
reportedMetric: CC50 (µM)
Give just the number in µM; leave the unit off.

Guide cases for CC50, answers given:
compound	CC50 [µM]
C[C@H](NC(=O)OC(C)(C)C)C(=O)N(Cc1ccc(F)cc1)C1(C(=O)NCc2ccccc2)CCN(Cc2ccccc2)CC1 [Compound 38]	48
COC(=O)C[C@H](NC(=O)OC(C)(C)C)C(=O)N(Cc1cccc(F)c1)C1(C(=O)NCc2ccccc2)CCN(Cc2ccccc2)CC1 [Compound 27]	46
O=C(N/C(=C\c1ccccc1)C(=O)N1CCC(O)(c2ccc(Br)cc2)CC1)c1ccccc1 [Compound K22, reference compound]	28

Consider the additional compound presented here.
The compound listed as COC(=O)C[C@H](NC(=O)OCc1ccccc1)C(=O)N(CCNc1ccccc1)C1(C(=O)NCc2ccccc2)CCN(CCc2ccccc2)CC1 [Compound 58] shows CC50 equal to 20

---

We begin with a simple list: items and their reported CC50.
experimentNotes: in vitro
settings: human
Give just the number in µM; leave the unit off.

The compound listed as COC(=O)C[C@H](NC(=O)OCc1ccccc1)C(=O)N(Cc1ccccc1)C1(C(=O)NCc2ccccc2)CCN(CCc2ccccc2)CC1 shows CC50 equal to 24

The compound listed as COC(=O)C[C@H](NC(=O)OC(C)(C)C)C(=O)N(Cc1ccc(F)cc1)C1(C(=O)NCc2ccccc2)CCN(C)CC1 shows CC50 equal to 92

The compound listed as CC(C)(C)OC(=O)N[C@@H](CC(N)=O)C(=O)N(Cc1ccc(F)cc1)C1(C(=O)NCc2ccccc2)CCN(Cc2ccccc2)CC1 shows CC50 equal to 82

---

Tested on: human embryonic lung (HEL) fibroblast cells
settings: mock-infected HEL cells; microscopically visible alterations in cell morphology
reportedMetric: Cytotoxicity MCC (minimal cytotoxic concentration) (µM)
Give just the number in µM; leave the unit off.

Guide cases for Cytotoxicity MCC (minimal cytotoxic concentration), answers given:
>>> print(df.to_string())
                          structureassmiles  unittag  reportedresult
0  COC(=O)C[C@H](NC(=O)OC(C)(C)C)C(=O)N(C)C1(C(=O)NCc2ccccc2)CCN(Cc2ccccc2)CC1       µM             100
1  COC(=O)C[C@H](NC(=O)OC(C)(C)C)C(=O)N(Cc1ccc(F)cc1)C1(C(=O)NCS(=O)(=O)c2ccc(C)cc2)CCN(Cc2ccccc2)CC1       µM             100
2  COC(=O)C[C@H](NC(=O)OCc1ccccc1)C(=O)N(CCNc1ccccc1)C1(C(=O)NCc2ccccc2)CCN(Cc2ccccc2)CC1       µM              40
3  COC(=O)C[C@H](NC(=O)OC(C)(C)C)C(=O)N(Cc1ccc(F)cc1)C1(C(=O)NCc2ccccc2)CCN(Cc2ccccc2)CC1       µM             100
4  CC(C)(C)OC(=O)N[C@@H](Cc1ccccc1)C(=O)N(Cc1ccc(F)cc1)C1(C(=O)NCc2ccccc2)CCN(Cc2ccccc2)CC1       µM              50

The compound listed as CC(C)(C)OC(=O)N[C@@H](CC(N)=O)C(=O)N(Cc1ccccc1)C1(C(=O)NCc2ccccc2)CCN(Cc2ccccc2)CC1 shows Cytotoxicity MCC (minimal cytotoxic concentration) equal to 100

The compound listed as COC(=O)C[C@H](NC(=O)OC(C)(C)C)C(=O)N(Cc1ccc([N+](=O)[O-])cc1)C1(C(=O)NCc2ccccc2)CCN(Cc2ccccc2)CC1 shows Cytotoxicity MCC (minimal cytotoxic concentration) equal to 75

The compound listed as COC(=O)C[C@H](NC(=O)OC(C)(C)C)C(=O)N(Cc1ccc(F)cc1)C1(C(=O)NCc2ccccc2)CCN(CCc2ccccc2)CC1 shows Cytotoxicity MCC (minimal cytotoxic concentration) equal to 100

The compound listed as COC(=O)C[C@H](NC(=O)OC(C)(C)C)C(=O)N(Cc1cccc(F)c1)C1(C(=O)NCc2ccccc2)CCN(Cc2ccccc2)CC1 shows Cytotoxicity MCC (minimal cytotoxic concentration) equal to 100

---

experimentNotes: in vitro
settings: human
reportedMetric: CC50 (µM)
Give just the number in µM; leave the unit off.

The compound listed as COC(=O)C[C@H](NC(=O)OCc1ccccc1)C(=O)N(Cc1ccccc1)C1(C(=O)NCc2ccccc2)CCN(Cc2ccccc2)CC1 [Compound 33] shows CC50 equal to 90

---

experimentNotes: in vitro
settings: human
reportedMetric: CC50 (µM)
Give just the number in µM; leave the unit off.

compound	reportedMetric	reportedResult
COC(=O)C[C@H](NC(=O)OC(C)(C)C)C(=O)NC1(C(=O)NCc2ccccc2)CCN(Cc2ccccc2)CC1 [Compound 18]	CC50	48

The compound listed as COC(=O)C[C@H](NC(=O)OC(C)(C)C)C(=O)N(Cc1ccc([N+](=O)[O-])cc1)C1(C(=O)NCc2ccccc2)CCN(Cc2ccccc2)CC1 [Compound 23] shows CC50 equal to 49

The compound listed as COC(=O)C[C@H](NC(=O)OCc1ccccc1)C(=O)N(Cc1ccccc1)C1(C(=O)NCc2ccccc2)CCN(CCc2ccc(C)cc2)CC1 [Compound 54] shows CC50 equal to 24

The compound listed as COC(=O)C[C@H](NC(=O)OC(C)(C)C)C(=O)N(Cc1ccc(F)cc1)C1(C(=O)NCS(=O)(=O)c2ccc(C)cc2)CCN(Cc2ccccc2)CC1 [Compound 14] shows CC50 equal to 78

The compound listed as COC(=O)C[C@H](NC(=O)OCc1ccccc1)C(=O)N(CCNc1ccccc1)C1(C(=O)NCc2ccccc2)CCN(Cc2ccccc2)CC1 [Compound 57] shows CC50 equal to 51

The compound listed as COC(=O)C[C@H](NC(=O)OC(C)(C)C)C(=O)N(Cc1ccc(F)cc1)C1(C(=O)NCc2ccccc2)CCNCC1 [Compound 4] shows CC50 equal to 66

The compound listed as COC(=O)CCC(=O)N(Cc1ccc(F)cc1)C1(C(=O)NCc2ccccc2)CCN(Cc2ccccc2)CC1 [Compound 30] shows CC50 equal to 64

The compound listed as COC(=O)C[C@H](NC(=O)OC(C)(C)C)C(=O)N(Cc1ccc(C(F)(F)F)cc1)C1(C(=O)NCc2ccccc2)CCN(Cc2ccccc2)CC1 [Compound 24] shows CC50 equal to 11

The compound listed as COC(=O)C[C@H](NC(=O)OCc1ccccc1)C(=O)N(Cc1ccccc1)C1(C(=O)NCc2ccccc2)CCN(CCc2ccc(F)cc2)CC1 [Compound 56] shows CC50 equal to 23

---

System: HCoV-229E
experimentNotes: Cytopathic effect (CPE) reduction assay with HCoV-229E in HEL cells
Type: cell-based, human coronavirus 229E
settings: Human coronavirus 229E, 120 h; HCoV-229E-infected HEL cells; protection against virus-induced CPE by MTS cell viability assay; five days at 35 °C; read-out: Antiviral EC50 MTS
reportedMetric: pEC50
Bear in mind: pEC50 is minus log10 of a mol/L concentration; give just that figure.

>>> df
                                   compound  studytarget  reportedresult
0  CC(C)(C)OC(=O)N[C@@H](Cc1ccccc1)C(=O)N(Cc1ccccc1)C1(C(=O)NCc2ccccc2)CCN(Cc2ccccc2)CC1    HCoV-229E            5.35

The compound listed as COC(=O)C[C@H](NC(=O)OCc1ccccc1)C(=O)N(CCNc1ccccc1)C1(C(=O)NCc2ccccc2)CCN(CCc2ccccc2)CC1 shows pEC50 equal to 5.27

The compound listed as COC(=O)CC[C@H](NC(=O)OC(C)(C)C)C(=O)N(Cc1ccc(F)cc1)C1(C(=O)NCc2ccccc2)CCN(Cc2ccccc2)CC1 shows pEC50 equal to 4.96

The compound listed as N#C[C@@]1(c2ccc3c(N)ncnn23)O[C@H](CO)[C@@H](O)[C@H]1O [GS-441524, reference compound] shows pEC50 equal to 5.64

The compound listed as COC(=O)C[C@H](NC(=O)OCc1ccccc1)C(=O)N(Cc1ccccc1)C1(C(=O)NCc2ccccc2)CCN(CCc2ccc([N+](=O)[O-])cc2)CC1 shows pEC50 equal to 5.11

The compound listed as COC(=O)C[C@H](NC(=O)OC(C)(C)C)C(=O)N(Cc1ccc(F)cc1)C1(C(=O)NCc2ccccc2)CCN(C2CCCCC2)CC1 shows pEC50 equal to 4.85

The compound listed as CC(C)(C)OC(=O)N[C@@H](Cc1ccc(F)cc1)C(=O)N(Cc1ccccc1)C1(C(=O)NCc2ccccc2)CCN(Cc2ccccc2)CC1 shows pEC50 equal to 5.08

The compound listed as CC(C)(C)OC(=O)NC(Cc1ccccc1)C(=O)N(Cc1ccccc1)C1(C(=O)NCc2ccccc2)CCN(Cc2ccc([N+](=O)[O-])cc2)CC1 (stereo not shown) shows pEC50 equal to 4.11

The compound listed as CC(C)(C)OC(=O)N[C@@H](CC(N)=O)C(=O)N(Cc1ccccc1)C1(C(=O)NCc2ccccc2)CCN(Cc2ccccc2)CC1 shows pEC50 equal to 4.80

The compound listed as COC(=O)C[C@H](NC(=O)OC(C)(C)C)C(=O)N(Cc1ccccc1F)C1(C(=O)NCc2ccccc2)CCN(Cc2ccccc2)CC1 shows pEC50 equal to 4.82
